- Tested on: PC-3 prostate
- assay explanation: NCI tumour cell line growth inhibition, 48 h
metric name: TGI

Example compounds with recorded TGI:
INSERT INTO measurements (compound, metric_name, result) VALUES
  ('CC(=O)Nc1ccc(C(=O)NN2C(=O)C(Cl)C2c2cc(Br)ccc2O)cc1 (stereo not drawn)', 'TGI', '> 100 µM'),
  ('CCC(C)C1NC(=O)C2CCCN2C(=O)C(CC2CO2)OC(=O)CCNC(=O)C(C)N(C)C(=O)C(C(C)C)N(C)C1=O (stereo not drawn)', 'TGI', '> 100 µM');

Now turn to the next compound.
Query block: Report TGI for c1ccc(C2C3=C(CCCC3)Nc3nc4cc5ccccc5cc4n32)cc1 (stereo not drawn)
Result block: > 100 µM

---

What TGI was measured for each of the following?
- Tested on: HT29 colon
- assay explanation: NCI tumour cell line growth inhibition, 48 h

INSERT INTO assay_data (chemical_smiles, metric_name, result) VALUES
  ('CSC(=NCCCCN=C(NS(=O)(=O)c1ccc(Cl)cc1)SC)NS(=O)(=O)c1ccc(Cl)cc1', 'TGI', '> 100 µM'),
  ('[O-][N+](CCO)(CCO)c1ncnc2nc[nH]c12', 'TGI', '> 100 µM'),
  ('Cc1c2c(nn1C(=O)c1nn(-c3ccc(Cl)cc3)cc1O)-c1ccccc1CC2', 'TGI', '> 50.6 µM'),
  ('COc1cc(C#N)cc(OC)c1OCCOCCOc1c(OC)cc(C#N)cc1OC', 'TGI', '> 100 µM');

Now turn to the next compound.
Query block: Report TGI for CNNCc1ccc(C(=O)NC(C)C)cc1
Result block: > 500 µM

---

- Test system: RXF 393 renal
- assay explanation: NCI tumour cell line growth inhibition, 48 h
What TGI was measured for each of the following?

INSERT INTO results (compound, study_target, result) VALUES
  ('CC1=NN(C(=O)CC(=O)Nc2ccccc2Cl)C(=O)C1N=Nc1ccc(C(=O)O)cc1 (configuration not stated)', 'RXF 393 renal', '> 100 µM');

Can you give me TGI for all of these, one by one?
1. C[C@]12CCC(=O)C=C1CC[C@@H]1[C@@H]2[C@@H](O)C[C@@]2(C)[C@H]1CC[C@]2(O)C(=O)CO
2. NC(=O)N/N=C(\C(=O)C(=O)Nc1ccc(Cl)c(C(F)(F)F)c1)c1nc2ccc(C(=O)c3ccccc3)cc2[nH]c1=O
3. CC(C)[Si](OC1=C(C(=O)Nc2ccccc2Cl)CCCCC1)(C(C)C)C(C)C
4. C=C1C(=O)O[C@H]2[C@H]1CC/C(Cn1cc(Cn3ccc4ccccc43)nn1)=C\CC[C@@]1(C)O[C@@H]21
5. Oc1c2cc(Br)cc1CCc1cc(Br)cc(c1O)CC2
6. COc1cc(-c2cc(=O)c3ccccc3o2)ccc1N

Result block:
["> 100 µM", "> 100 µM", "> 100 µM", "2.82 µM", "70.4 µM", "> 100 µM"]

Can you give me TGI for all of these, one by one?
1. CCCCCCCC/C=C/CCCCCCCC1=NC(C)(C)CN1C(C)C
2. C#CCOCn1cnc2c(=S)nc[nH]c21
3. C/C(CC(=O)NNc1ccc([N+](=O)[O-])cc1)=N\Nc1ccc([N+](=O)[O-])cc1
4. CN=C1Nc2ccc(Cl)cc2C(c2ccccc2)=NN1C
5. Cc1cc(O)c(C(c2cccnc2)c2c(O)cc(C)[nH]c2=O)c(=O)[nH]1
6. C[C@]12CC[C@@H]3c4ccccc4CC[C@H]3[C@@H]1CC[C@@H]2O
7. NCCNc1nc(N2CCCC2)c2nc(Cl)c(NCc3ccccc3)nc2n1
8. COC(=O)C(=O)c1c2ccccc2n2ccc3c4ccccc4[nH]c3c12

Result block:
3.04 µM
> 100 µM
46.5 µM
81.1 µM
> 100 µM
> 100 µM
2.91 µM
> 10 µM

Can you give me TGI for all of these, one by one?
1. CCCCOC(=O)C1CN2C=CC=NC2=NC1(C(F)(F)F)C(F)(F)F (configuration not stated)
2. CNNCc1ccc(C(=O)NC(C)C)cc1
3. Cc1ccccc1NC(=O)C(=O)C(c1cnc2ccc([N+](=O)[O-])cc2n1)[N+](=O)[O-] (configuration not stated)
4. CCOC(=O)C1CCn2c(nc3c2c(=O)n(C)c(=O)n3C)S1 (configuration not stated)

Result block:
["> 100 µM", "> 500 µM", "> 100 µM", "> 100 µM"]

Can you give me TGI for all of these, one by one?
1. CC(Sc1ccccc1)C(CO)(CO)[N+](=O)[O-] (configuration not stated)
2. CC(C)NCC(O)COC(=O)c1cccs1 (configuration not stated)
3. Cc1cc2c(c(C=Nc3ccc([N+](=O)[O-])cc3)c1)OC1(C=C2)Oc2ccccc2C(=O)N1C (configuration not stated)
4. CC1(C)CC(=O)C2=C(C1)NC(SSC1=C(C#N)C(c3ccc(F)cc3)C3=C(CC(C)(C)CC3=O)N1)=C(C#N)C2c1ccc(F)cc1 (configuration not stated)
5. O=S1(=O)OC(c2ccc(O)cc2)(c2ccc(O)cc2)c2ccccc21

Result block:
31.3 µM
> 100 µM
47.5 µM
41.1 µg/mL
> 100 µM

Can you give me TGI for all of these, one by one?
1. N#CC1=C(S)N(C2OC(CO)C(O)C(O)C2O)C(c2ccccc2)=CC1c1ccccc1 (configuration not stated)
2. CCC(C)C1NC(=O)C2CCCN2C(=O)C(CC2CO2)OC(=O)CCNC(=O)C(C)N(C)C(=O)C(C(C)C)N(C)C1=O (configuration not stated)
3. COC(=O)C1=NN2c3ccccc3C(=O)OCCC2(C)C1 (configuration not stated)

Result block:
1: 92.7 µM; 2: > 100 µM; 3: > 100 µM

This collection of values is drawn from PubChem BioAssay (NCI).
